- Test system: CCRIS mutagenicity, Ames/micronucleus/aberration tests
- experimentNotes: CCRIS mutagenicity studies
- runConditions: Test System: AMES SALMONELLA TYPHIMURIUM; Strain/Indicator: TA98; Metabolic Activation: NONE; Method: PREINCUBATION
Active and inactive are the calls of the source. The rule behind the calls is not given here.
readoutKind: mutagenic call

>>> valuemeasured("C[C@H](CCC(=O)O)[C@H]1CC[C@H]2[C@@H]3CC[C@@H]4C[C@H](O)CC[C@]4(C)[C@H]3CC(=O)[C@]12C")
"inactive; negative"
>>> valuemeasured("Cc1ccc(N)cc1")
"inactive; negative"
>>> valuemeasured("O=[N+]([O-])c1cccc(CBr)c1")
"inactive; negative"
>>> valuemeasured("O=C(O)c1cc(Cl)ccc1Cl")
"inactive; negative"
>>> valuemeasured("CCCOC(=O)C=Cc1ccc([N+](=O)[O-])o1")
"active; positive"
>>> valuemeasured("O=S(=O)(O)c1ccccc1")
"inactive; negative"
>>> valuemeasured("O=C1C(Cl)=C(Cl)C(=O)c2ccccc21")
"inactive; negative"
>>> valuemeasured("OCCOCCOCCO")
"inactive; negative"
>>> valuemeasured("COc1cc(NC(C)CCCN)c2ncccc2c1 (stereo not drawn)")
"inactive; negative"
>>> valuemeasured("O=C1C=Cc2c(ccc3ccccc23)C1=O")
"inactive; negative"
>>> valuemeasured("OCC(CO)(CBr)CBr")
"inactive; negative"
>>> valuemeasured("Cc1ccccc1C")
"inactive; negative"
>>> valuemeasured("CC(Cl)CCCC(Cl)CCCC(Cl)CCCC(Cl)CCCC(Cl)CCCC(Cl)CCCl (stereo not drawn)")
"inactive; negative"
>>> valuemeasured("O=c1[nH]c(=O)n([C@H]2C[C@H](O)[C@@H](CO)O2)cc1/C=C/Br")
"inactive; negative"
>>> valuemeasured("Nc1ccc(Cc2ccc(N)c(C(=O)O)c2)cc1C(=O)O")
"inactive; negative"
>>> valuemeasured("BrCCCCCBr")
"inactive; negative"
>>> valuemeasured("O.O.O.O.O.O.O=[N+]([O-])[O-].O=[N+]([O-])[O-].O=[N+]([O-])[O-].[La+3]")
"inactive; negative"
>>> valuemeasured("CCCCOC(=O)c1ccc(N)cc1")
"inactive; negative"
>>> valuemeasured("CCCC(=O)OCc1cccc([N+](=O)[O-])c1")
"inactive; negative"
>>> valuemeasured("CC(C)c1ccccc1OP(=O)(Oc1ccccc1)Oc1ccccc1")
"inactive; negative"
>>> valuemeasured("COC(=O)C(Cl)CCC(Cl)CCCCCC(Cl)CCC(Cl)CCCCCl (stereo not drawn)")
"inactive; negative"
>>> valuemeasured("Cc1cc(=O)n(-c2ccccc2)n1C")
"inactive; negative"
>>> valuemeasured("CNc1ccccc1")
"inactive; negative"
>>> valuemeasured("CC1=C(O)C(=O)CC1")
"inactive; negative"
>>> valuemeasured("CC(=O)Nc1ccccc1N")
"inactive; negative"
>>> valuemeasured("Nc1c([N+](=O)[O-])cccc1[N+](=O)[O-]")
"active; positive"
>>> valuemeasured("CC(=O)Nc1cccc(N)c1C(=O)O")
"inactive; negative"
>>> valuemeasured("CC(C)NCC(O)c1ccc(O)c(O)c1 (stereo not drawn)")
"inactive; negative"
